Parameter viability, T/C: see the listing below.
Tested on: 885724-159-R-J1-PDC complex spheroid viability;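 also: spheroids exposed to compounds for 7 days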
ASSAY_SUMMARY: Anticancer human tumor 885724-159-R-J1-PDC patient-derived pancreatic adenocarcinoma cell line growth inhibition [POLQ]
CONDITION_DETAILS: second compound 1 µM; first compound 3.16 µM; hits give low values
PROPERTY: viability, T/C

COMPOUND	TARGET_UNDER_TEST	VALUE_REPORTED
COc1cc(C2c3cc4c(cc3C(OC3OC5COC(C)OC5C(O)C3O)C3COC(=O)C23)OCO4)cc(OC)c1O (stereo not given) + Cc1cccc(N(C)C(=O)C2C(O)CCN2c2nc(C)cc(C(F)(F)F)c2C#N)c1	885724-159-R-J1-PDC complex spheroid viability	55.7%
O=C(Nc1ccc(O)c(NS(=O)(=O)c2ccc(F)cc2)c1)c1ccc(-c2ccccc2)cc1 + Cc1cccc(N(C)C(=O)C2C(O)CCN2c2nc(C)cc(C(F)(F)F)c2C#N)c1	885724-159-R-J1-PDC complex spheroid viability	112%
C=CC(=O)N1CCN(c2nc(=O)n(-c3c(C)ccnc3C(C)C)c3nc(-c4c(O)cccc4F)c(F)cc23)C(C)C1 (stereo not given) + COC1C(OC(N)=O)C(O)C(Oc2ccc3c(O)c(NC(=O)c4ccc(O)c(CC=C(C)C)c4)c(=O)oc3c2C)OC1(C)C	885724-159-R-J1-PDC complex spheroid viability	114%
COc1cc(C2c3cc4c(cc3C(OC3OC5COC(C)OC5C(O)C3O)C3COC(=O)C23)OCO4)cc(OC)c1O (stereo not given) + COC1C(OC(N)=O)C(O)C(Oc2ccc3c(O)c(NC(=O)c4ccc(O)c(CC=C(C)C)c4)c(=O)oc3c2C)OC1(C)C	885724-159-R-J1-PDC complex spheroid viability	58.2%
CCCS(=O)(=O)Nc1ccc(F)c(C(=O)c2c[nH]c3ncc(-c4ccc(Cl)cc4)cc23)c1F + Nc1ccc(C#CCN(C(=O)Cc2ncc(C(F)(F)F)cc2C(F)(F)F)c2ccc(F)cc2)nn1	885724-159-R-J1-PDC complex spheroid viability	148%
